experiment: Tmax in Sprague-Dawley rat at 10 mg/kg,po measured upto 24 hrs by LC-MS/MS analysis; assay type: ADME, organism-based; details: in vivo
valueKind: Tmax
Please report the result as a number followed by the unit.

### Prompt Tmax lookup needed for Cc1c(C(C#N)c2c(F)cccc2F)nc(SC(C)C)[nH]c1=O (stereo unspecified) , thanks.
### Response 3.5 h

====

assay: Selectivity index, ratio of CC50 for human MT4 cells to EC50 for antiviral activity against NNRTI resistant HIV-1 infected in human MT4 cells; assay type: toxicity, cell-based; conditions: read-out: Ratio CC50/EC50
Listing of recorded selectivity ratio by entry.
Answer with the value's number alone.

Some solved cases for reference:
# compound, valueKind, valueReported
rows = [
    ("Cc1ccccc1C(C#N)c1nc(SC(C)C)[nH]c(=O)c1C (configuration not stated)", "selectivity ratio", 960),
    ("Cc1c(C(C#N)c2ccccc2)nc(SC(C)C)[nH]c1=O (configuration not stated)", "selectivity ratio", 547),
    ("Cc1cccc(C)c1C(C#N)c1nc(SC(C)C)[nH]c(=O)c1C (configuration not stated)", "selectivity ratio", 73),
    ("COc1cc(OC)cc(C(C#N)c2nc(SC(C)C)[nH]c(=O)c2C)c1 (configuration not stated)", "selectivity ratio", 61),
    ("COc1cccc(C(C#N)c2nc(SC(C)C)[nH]c(=O)c2C)c1 (configuration not stated)", "selectivity ratio", 1280),
    ("Cc1c(C(C#N)c2ccccn2)nc(SC(C)C)[nH]c1=O (configuration not stated)", "selectivity ratio", 207),
    ("Cc1c(C(C#N)c2cccc3c2OCO3)nc(SC(C)C)[nH]c1=O (configuration not stated)", "selectivity ratio", 213),
    ("Cc1c(C(C#N)c2cccc(Br)c2)nc(SC(C)C)[nH]c1=O (configuration not stated)", "selectivity ratio", 443),
    ("Cc1c(C(C#N)c2ccc(F)cc2)nc(SC(C)C)[nH]c1=O (configuration not stated)", "selectivity ratio", 28),
    ("Cc1c(C(C#N)c2ccccc2Cl)nc(SC(C)C)[nH]c1=O (configuration not stated)", "selectivity ratio", 1320),
]

### Prompt selectivity ratio lookup needed for Cc1c(C(C#N)c2cccc(F)c2)nc(SC(C)C)[nH]c1=O (configuration not stated) , thanks.
### Response 754

### Prompt # repeat for Cc1c(C(C#N)c2cccnc2)nc(SC(C)C)[nH]c1=O (configuration not stated)
### Response 14

### Prompt # repeat for COc1ccc(C(C#N)c2nc(SC(C)C)[nH]c(=O)c2C)cc1 (configuration not stated)
### Response 13

### Prompt # repeat for Cc1c(C(C#N)c2cccc(Cl)c2)nc(SC(C)C)[nH]c1=O (configuration not stated)
### Response 493

### Prompt # repeat for Cc1c(C(C#N)c2ccc(Br)cc2)nc(SC(C)C)[nH]c1=O (configuration not stated)
### Response 71
